Data credit: paper PMC2716403

# Experimental system: Ran (Homo sapiens, UniProt P62826)
# Protocol: ITC
Observable: Kd (µM)

• Nup153 ZnF region (protein, GDP-bound Ran) AGSSWQCDTCLLQNKVTDNKCIACQAAKLPLKETAKQTGIGTPSKSDKPASTSGTGFGDKFKPAIGTWDCDTCLVQNKPEAVKCVACETPKPGTGVKRALPLTVASESPVTASSSTTVTTGTLGFGDKFKRPVGSWECPVCCVSNKAEDSRCVSCTSEKPGLVSASSSNSVPVSLPSGGCLGLDKFKKPEGSWDCEVCLVQNKADSTKCIACESAKPGTKSEFKGFGT = 1
• Nup153 ZnF region (protein) AGSSWQCDTCLLQNKVTDNKCIACQAAKLPLKETAKQTGIGTPSKSDKPASTSGTGFGDKFKPAIGTWDCDTCLVQNKPEAVKCVACETPKPGTGVKRALPLTVASESPVTASSSTTVTTGTLGFGDKFKRPVGSWECPVCCVSNKAEDSRCVSCTSEKPGLVSASSSNSVPVSLPSGGCLGLDKFKKPEGSWDCEVCLVQNKADSTKCIACESAKPGTKSEFKGFGT = 20
• VGSWECPVCCVSNKAEDSRCVSCTSEKPG (GDP-bound Ran) [Nup153 ZnF3 ZnF3] = 6.6
• AGSSWQCDTCLLQNKVTDNKCIACQAAKL (GDP-bound Ran) [Nup153 ZnF1 ZnF1] = 6.5
